Cited source: ChEMBL document CHEMBL1629461

This section lists IC50 readings for Prostaglandin G/H synthase 1 (Homo sapiens, UniProt P23219).

1) CC(C)(C)Oc1c(Cl)cc2c(c1Cl)OC(C(F)(F)F)C(C(=O)O)=C2 (stereo not drawn) ... < 0.14 µM
2) CCOc1c(Cl)ccc2c1C=C(C(=O)O)C(C(F)(F)F)O2 (stereo not drawn) ... > 100 µM

// switching to the query compound
Enquiry: # get_value(readout='IC50', item= Nc1c(Cl)ccc2c1C=C(C(=O)O)C(C(F)(F)F)O2 (stereo not drawn) )
Return: > 100 µM
